A collection of compounds and their measured inhibition
- measuredTarget: AKT1 (human)
- assayComment: split-luciferase competition binding
- appliedConditions: compound 10.0 µM
Dear colleague, please send the value followed by its unit.

• O=C1NC(=O)c2cc(Nc3ccc(F)cc3)c(Nc3ccc(F)cc3)cc21 = 15%
• CN(C)CCCn1cc(C2=C(c3c[nH]c4ccccc34)C(=O)NC2=O)c2ccccc21 = 5%
• Cc1[nH]c(/C=C2\C(=O)Nc3ccc(S(=O)(=O)Cc4c(Cl)cccc4Cl)cc32)c(C)c1C(=O)N1CCC[C@@H]1CN1CCCC1 = 8%
• Fc1ccc(Cl)cc1-c1nc(Nc2ccncc2)c2nccnc2n1 = 39%
• O=C1Nc2ccc(I)cc2/C1=C/c1cc(Br)c(O)c(Br)c1 = 19%
• O=C(c1ccc(Nc2nccc(-c3cc4ccccc4s3)n2)cc1)N1CCC(N2CCCC2)CC1 = 0%
• Cn1cnc2c(NCc3ccccc3)nc(NCCO)nc21 = 5%
• N#C/C(=C(/N)Sc1ccc(N)cc1)c1ccccc1C(F)(F)F = 0%

Report inhibition from AKT1 (human) testing of "CC(C)(C)n1nc(-c2ccc(Cl)cc2)c2c(N)ncnc21"
0%

Write down the reported inhibition (system: AKT1 (human)) of "NC(=O)c1ccc(-c2nc(-c3ccccn3)c(-c3ccc4c(c3)OCCO4)[nH]2)cc1"
2%

Check AKT1 (human) data and give inhibition for "CC(C)[C@H](CO)Nc1nc(Nc2ccc(C(=O)O)c(Cl)c2)c2ncn(C(C)C)c2n1" .
0%

Param request: inhibition | system AKT1 (human) | item "c1ccc(-c2n[nH]cc2-c2ccnc3ccccc23)nc1"
0%

Name the recorded inhibition of "Cn1cc(C2=C(c3cn(CCCSC(=N)N)c4ccccc34)C(=O)NC2=O)c2ccccc21" , assay system AKT1 (human).
62%

Reference source: the kinase profiling compilation of Christmann-Franck et al. (2016)
